assay_comment: yeast display, Sf9 membrane polyspecificity reagent, FACS + sequencing; frameworks hold sequencing errors
reported_property: polyreactivity (PSR sort gate)

Use these answered entries as a reference point.
QVQLVESGGGLVQAGGSLRLSCAASGHIFPTNAMGWYRQAPGKERELVAVISESVGSTYYADSVKGRFTISRDNAKNTVYLQMNSLKPEDTAVYYCATQSRYPSLDADYDYWGQGTQVTVSS    low polyreactivity
QVQLVESGGGLVQAGGSLRLSCAASGSIFITYARGWYRQAPGKERELVAAIRDSGDRTYYADSVKGRFTISRDNAKNTVYLQMISLKPEDTAVYYCNARWQEPLKYDYWGQGTQVTVSS    low polyreactivity
QVQLVESGGGLVQAGGSLRLSCAASGRTFGIYAMGWYRQAPGKERELVATISWRGGSTYYADSVKGRFTISRDNAKNSVYLQMNSLKPEDTAVYYCAAGYYPYWGQGTQVTVSS    low polyreactivity
QVQLVESGGGLVQAGGSLRLSCAASGSIFTRYVMGWYRQAPGKERELVAAISGRGSSTYYADSVKGRFTISRDNAKNTVYLQMNSLKPEDTAVYYCAAEIVVFYSEGQRNTFYYWGQGTQVTVSS    high polyreactivity

The record that follows has no polyreactivity (PSR sort gate) shown yet.
Exercise: Please give the measured polyreactivity (PSR sort gate) for this sequence: "QVQLVESGGGLVQAGGSLRLSCAASGSTFAIYAMGWYRQAPGKERELVAAISKSGGSTYYADSVKGRFTISRDNAKNTVYLQMNILKPEDTAVYYCARRQYAFGPYGFYYWGQGTQVTVSS"
Key: high polyreactivity

----------
assay_comment: yeast display, Sf9 membrane polyspecificity reagent, FACS + sequencing; frameworks hold sequencing errors
reported_property: polyreactivity (PSR sort gate)

QVQLVESGGGLVQAGGSLRLSCAASGSILPRYAMGWYRQAPGKERELVAAITSGGITSYADSVKGRFTISRDNAKNTVYLQMNSLKPEDTAVYYCAADWYVIYDYWGQGTQVTVSS    low polyreactivity
QVQLVESGGRLVQAGGSLRLSCAASGIIFPYNTMGWYRQSPGKERELVASIDDGGSTNYADSVKGRFTISRDNAKNTVYLQMNSLKPEDTAVYYCNADLFFIYVRQPGYDYWGQGTQVTVSS    low polyreactivity

----------
assay_comment: yeast display, Sf9 membrane polyspecificity reagent, FACS + sequencing; frameworks hold sequencing errors
reported_property: polyreactivity (PSR sort gate)

Known polyreactivity (PSR sort gate) results, listed for orientation:
QVQLVESGGGLVQAGGSLPLSCAASGSIFDKYTMGWYRQAPGKERELVAAISRDSGSTYYADSVKGRFTISRDNAKNTVYLQMNSLKPEDTAVYYCAARLGYYGYDYWGQGTQVTVSS    low polyreactivity
QVQLVESGGGLVQAGGSLRLSCAASGFIFDYYGMGWYRQAPGKERELVAAITRGGSTYYADSVKGRFTISRDNAKNTVYLQMNSLKPEDTAFYYCAAKYVSQGYDYWGQGTQVTVSS    high polyreactivity
QDQLVESGGGLVQAGGSLRLSCAASGRTFDDYAMGWYRQAPGKERELVAAISSSGGSTYYADSVKGRFSISRDNAKNTVYLQMNCLKPDDTAVYYCAADYDWGYWYDYWGQGTQVTVSS    low polyreactivity
QVQLVESGGGLVQAGGSLRLSCAASGRIFSVNAMGWYRQATGKERELVASITMSGGSTYYADSVKGRFTISRDNAKNTVYIQMNSLKPEDTAVYYCAKGWSRYNDRERDDEYWGQGTQVTVSS    low polyreactivity
QVQLVESGGGLVQAGGSLRLICAASGRTFTGYTMGWYRQAPGKEREFVAAISSNGGRTYYADSVKGRFTISRDNAKNTVYLQMNSLKPEDTAVYYCAAPYTFWGQGTQVTVSS    high polyreactivity

Below are some sequences; for each one, tell me its polyreactivity (PSR sort gate).
1. QVQLVESGGGLVQAGGSLRLSCAASGRIFWGYDMGWYRQAPGKEREFVAAISSGGGRKYYADSVKGRFTISRDNAKNTVYLQMNSLKPEDTAVYYCNAELNWYYYIHLDYWGQGTQVTVSS
2. QVQLVESGGGLVQAGGSLRLRCAASGRILVRYAMGWYRQAPGKERELVAAISRGGSTTYADSVKGRFTISRDNAKNTVYLQMNSLKPEDTAVYYCAAGRYPYNRDYWGQGTQVTVSS
3. QVQLVESGGGLVQAGGSLRLSCAASGGTFAGYAMGWYRQAPGKERELVAAISWSSGRTYYADSVKGRFTISRDIAKNSVYLQMNSLKPEETAVYDCTVLRYRGYDYWGQGTQVTVSS
4. QVQLVESGGGLVQAGGSLRLSCAASGIIFRTYDMGWYRQAPGKERELVANISWSAGSTYYADSVKGRFTISRDNAKNTVYLQMNSLKPEDTAVYFCNAVRLYPSSYDYWGQGTQVTVSS
5. QVQLVDSGGGLVQAGGSLRLSCSASGFTFAWYAMGWYRQAPGKERELVAAISGSGGRTYYADSVMGRFTISRDNAKNTVYLQMNSLIPEDTAVYYCATRRRYEYYWGQGTQVTVSS
6. QVQLVESGGGLVQAGGSLRLSCAASGRIFTGYAMGWYRQAPGKERELVATIRSRGGGTYYADSVKGRFTISRDNAKNTVYLQMNSLKPEDTAVYYCAADDYYYYFGTRYGYWGQGTQVTVSS

Key:
1: low polyreactivity; 2: high polyreactivity; 3: high polyreactivity; 4: low polyreactivity; 5: high polyreactivity; 6: low polyreactivity

----------
assay_comment: yeast display, Sf9 membrane polyspecificity reagent, FACS + sequencing; frameworks hold sequencing errors
reported_property: polyreactivity (PSR sort gate)

QVQLVESGGGLVQAGGSLRLSCAASGSTFPPNGMGWYRQAPGKERELVAAIRWRGGSTYYADSVKGRFTISRDNAKNTVYLQMNSLKPEDTAVYYCAKYVTYSRPTNSPSGKHVYWGQGTQVTVSS    low polyreactivity
QVQLVESGGGLVQAGGSLRLSCAASGSTLFAYAMGWYRQAPGKERELVAAITSGASTNYADSVKGRFTISRDNAKNTVYLQMNSLKPEDTAVYYCAKDVSGTNPDYDYWGQGTQVTVSS    low polyreactivity

----------
assay_comment: yeast display, Sf9 membrane polyspecificity reagent, FACS + sequencing; frameworks hold sequencing errors
reported_property: polyreactivity (PSR sort gate)

Consider the following illustrative entries.
QVQLVESGGGLVQAGGSLRLSCAASGRIFRPYAMGWYRQAPGKERELVASISWRGSSTYYADSVKGRFTISRDNAKNTVYLQMNSLKPEDTAVYYCAARRYPTSGYAYWGQGTQVTVSS    high polyreactivity
QVQLVESGGGLVQAGGSLRLSCAASGIIFTFYAMGWYRQAPGKERELVAAISYSSGSTYADSVKGRFTISRDNAKNTVYLQMNSLKPDDTAVYYCAVDLFPGHSYTYDYWGQGTQVTVSS    low polyreactivity
QVQLVESGGGLVQAGGSLRLSCAASGRSLYNTMGWYRQAPGKERELVAGINWGGGRTYADSVKGRFTISRDNAKNTVYLQMNSMKPEDTAVYYCAADVNYQSRSHIVDYEYGYWGQGTQVTVSS    low polyreactivity
QVQLVESGGGLVQAGGSLRLSCAASGLTFRANDMGWYRQAPGKERELVAGITESGDSTYYADSVKGRFTISRDNAKNTVYLQMNSLKPEDTAVYYCAAGSYYWYWYRVGEWYAYEYWGQGTQVTVSS    low polyreactivity
QVQLVESGGGLVQAGGSLRLSCAASGRTLIHYAMGWYRQAPGKERELVATINIGGRTYADSVKGRFTISRDNAKNTVYLQMNSLKPEDTAVYYCAADHRYSARRSVPTLYDYWGQGTQVTVSS    low polyreactivity
QVHLVESGGGLVQAGGSLRLSCAASGYIFHVYAMGWYRQAPGKERELVAAITSSGGSKYYADSVKGRFTISRDNAKNTVYLQMNCLKPEDTAVYYCAARTRYISGRQTGYDYWGQGTQVTVSS    high polyreactivity

Please give polyreactivity (PSR sort gate) for each item listed below.
1. QVQLVESGGGLVQAGGSLRLSCAASGRTFTRYAMGWYRQAPGKERELVAAISRGGGGTYYADSVKGRFTISRDNAKNTVYLQMNSLKPEDTAVYYCAADGDRSAQRYTGYYYWGQGTQVTVSS
2. QVQLVESGGGLVQAGGSLRLSCAASGSTFALNAMGWYRQAPGKERELVAAITTGGHTYYADSVKGRFTISRDNAKNTDYLQMNSLKPEDTAVYYCATVFYFDYYYHYDYWGQGTQVTVSS
3. QVQLVESGGGLVQAGGSLRLSCAASGSTFPYVMGWYTPAPGKERELVAAISQRTGSTYYADSVKGRFTISRDNAKNSVYLQMNILKPEDTAVYYCAKPVYLSPSRYDYWGQGTQVTVSS
4. QVQLVESGGGLVQAGGSLRLSCAASGFIFGNYAMGWYRPAPGKERELVATITRRGGRTYYADSVKGRFTISRDNAKNTVYLQMNSLKPEDTAVYYCNAGAYYLLSGQDDMDYWGQGTQVTVSS
5. QVQLVESGGGLVQAGGSLRLSCAASGSTFEANAMGWYRQAPGKERELVAVITWTGGSTYYADSVKGRFTISRDNAKNTVYLQMNSLKPEDTAVDYCAADGVVPGRFFWPAHEYDYWGQGTQVTVSS

Key:
["high polyreactivity", "low polyreactivity", "high polyreactivity", "high polyreactivity", "low polyreactivity"]
